Biological target: T1, Folate receptor alpha (FOLR1) (human, UniProt P15328 25-234, limits assumed)
T1 construct: Antigen printed simply as FOLR1 for the panning, the clone ELISA and the SPR chip; also called human FOLR1; folate receptor-α
T1 sequence (P15328 25-234 limits assumed): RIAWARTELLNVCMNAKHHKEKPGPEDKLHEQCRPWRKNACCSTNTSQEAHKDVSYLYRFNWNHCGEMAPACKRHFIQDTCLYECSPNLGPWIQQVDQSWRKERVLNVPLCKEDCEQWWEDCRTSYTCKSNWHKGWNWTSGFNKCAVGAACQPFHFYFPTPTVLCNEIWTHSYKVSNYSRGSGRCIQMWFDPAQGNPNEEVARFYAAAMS
Experiment: screening ELISA of panned phage library clones on FOLR1
Result type: binding result

CDR-L1 library clone D7 (Fab, V domains shown, Fab clone from the phage library on the parent Fab template; Only the CDR-L1 is printed) VH: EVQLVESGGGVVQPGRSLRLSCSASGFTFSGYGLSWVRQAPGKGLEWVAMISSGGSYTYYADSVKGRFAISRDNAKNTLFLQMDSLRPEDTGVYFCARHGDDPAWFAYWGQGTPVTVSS VL: DIQLTQSPSSLSASVGDRVTITCRASSGLSSNNLHWYQQKPGKAPKPWIYGTSNLASGVPSRFSGSGSGTDYTFTISSLQPEDIATYYCQQWSSYPYMYTFGQGTKVEIK = binds
